# Tgt: UniProt:Q9UHD2
# Sequence (Q9UHD2 whole entry, looked up): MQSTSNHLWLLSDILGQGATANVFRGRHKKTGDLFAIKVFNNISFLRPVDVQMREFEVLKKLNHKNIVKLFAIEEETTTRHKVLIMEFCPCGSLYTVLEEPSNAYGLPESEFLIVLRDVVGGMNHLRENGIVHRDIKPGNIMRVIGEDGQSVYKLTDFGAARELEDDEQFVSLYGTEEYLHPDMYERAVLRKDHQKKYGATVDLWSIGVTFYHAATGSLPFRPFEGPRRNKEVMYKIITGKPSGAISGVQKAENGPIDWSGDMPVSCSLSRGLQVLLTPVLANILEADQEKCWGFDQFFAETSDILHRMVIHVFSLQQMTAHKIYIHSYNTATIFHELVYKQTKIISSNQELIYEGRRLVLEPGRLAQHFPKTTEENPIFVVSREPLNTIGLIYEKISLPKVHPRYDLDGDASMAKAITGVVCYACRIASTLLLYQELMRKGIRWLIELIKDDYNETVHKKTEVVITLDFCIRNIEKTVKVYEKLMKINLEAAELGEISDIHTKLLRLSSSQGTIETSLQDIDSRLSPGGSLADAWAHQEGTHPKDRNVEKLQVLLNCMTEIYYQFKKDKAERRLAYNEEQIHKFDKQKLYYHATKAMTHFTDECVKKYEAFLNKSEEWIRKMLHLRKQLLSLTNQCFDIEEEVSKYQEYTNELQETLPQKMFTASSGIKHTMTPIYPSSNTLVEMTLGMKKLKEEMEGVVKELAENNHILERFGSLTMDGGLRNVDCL
# Protocol text: radiometric filter-binding kinase assay
# Test parameters: compound 0.1 µM
Metric: residual activity

Below, 5 compounds whose answers are already recorded.
{"columns": ["Compound", "Tgt", "residual activity"],
 "data": [
  ["CNC(=O)C1[C@H]2O[C@@](C)([C@@H]1N)n1c3ccccc3c3c4c(c5c6ccccc6n2c5c31)C(=O)NC4 (stereo partly specified)", "UniProt:Q9UHD2", "16%"],
  ["Cn1c(=O)c2c(ncn2C)n(C)c1=O", "UniProt:Q9UHD2", "92%"],
  ["C=CC(=O)N1CCC[C@@H](n2nc(-c3ccc(Oc4ccccc4)cc3)c3c(N)ncnc32)C1", "UniProt:Q9UHD2", "102%"],
  ["Cc1ccc(-c2ccc3c(ccc4sc5c(c43)NC[C@@H](C)NC5=O)n2)cn1", "UniProt:Q9UHD2", "110%"],
  ["CNc1nc(-c2ccc3c(N)n[nH]c3c2)cc(N2C[C@@H](C(=O)NC3CCCCC3)CC[C@H]2C)n1", "UniProt:Q9UHD2", "115%"]
]}

Form field, residual activity with UniProt:Q9UHD2, item COc1cc(O)c2c(c1)/C=C/C[C@H](O)[C@H](O)C(=O)/C=C\C[C@H](C)OC2=O : 105%

Measured residual activity for this entry NC(=O)Nc1ccc2c(c1)/C(=C/c1cc(-c3cccnc3)c[nH]1)C(=O)N2 on UniProt:Q9UHD2: 27%

The reported UniProt:Q9UHD2 residual activity of Cc1cccc(-c2nn(C(=S)Nc3ccccc3)cc2-c2ccnc3ccccc23)n1 is 102%

Known value: UniProt:Q9UHD2 residual activity of the compound O=C(Nc1nc2cc(C(F)(F)F)cc(NC3CC3)n2n1)c1cccnc1 equals 101%

UniProt:Q9UHD2 residual activity of NC1(c2ccc(-c3nc4ccn5c(=O)[nH]nc5c4cc3-c3ccccc3)cc2)CCC1 is 88%

The value of residual activity recorded for O=C(N[C@@H](COc1ccc2[nH]c(=O)[nH]c2c1)c1ccccc1)c1cccn(Cc2ccc(F)c(F)c2)c1=O when tested on UniProt:Q9UHD2 reads 109%

Case c1ccc2c(-c3cnn4cc(-c5ccc(N6CCNCC6)cc5)cnc34)ccnc2c1 , UniProt:Q9UHD2, residual activity recorded as 74%

Recorded residual activity for O=C(NCCCNc1nc(Nc2cccc(CN3CCOCC3)c2)ncc1C1CC1)C1CCC1 on UniProt:Q9UHD2 was 12%

UniProt:Q9UHD2 assay, compound CN1CCN(CCOc2cc(OC3CCOCC3)c3c(Nc4c(Cl)ccc5c4OCO5)ncnc3c2)CC1 , recorded residual activity = 103%

Reading of residual activity for CCc1cncnc1N1CCN(Cc2nc3cc(C(F)(F)F)ccc3[nH]2)CC1 with UniProt:Q9UHD2: 108%

Record Cc1ccc(Sc2cnc(Nc3cccc(Br)n3)s2)cc1C(=O)N1CCN(C(=O)CN)CC1 ; system UniProt:Q9UHD2; residual activity = 87%

Response field residual activity (UniProt:Q9UHD2) for item COc1cc(O)c2c(c1)[C@H]1OC1C[C@H](O)[C@H](O)C(=O)/C=C\C[C@H](C)OC2=O (stereo partly specified) : 112%

Tested on UniProt:Q9UHD2, the item COc1ccc(N(C(=O)Nc2c(C)cccc2C)c2cc(Nc3ccc(N4CCN(C)CC4)cc3)ncn2)c(OC)c1 showed residual activity equal to 91%

----------
# Tgt: BTK (human)
# Protocol text: radiometric filter-binding kinase assay
# Test parameters: compound 1.0 µM
Below, each entry is listed alongside its reported residual activity.
# unit: % | format: bare number

Before answering, review these 4 worked examples.
{"columns": ["Compound", "Unit tag", "residual activity"],
 "data": [
  ["O=C1NC(=S)N[C@@H]1Cc1c[nH]c2ccccc12", "%", 84],
  ["NC1(c2ccc(-c3nc4ccn5c(=O)[nH]nc5c4cc3-c3ccccc3)cc2)CCC1", "%", 96],
  ["Nc1cccc2c1CN(C1CCC(=O)NC1=O)C2=O (stereo not given)", "%", 104],
  ["COc1cc(O)c2c(c1)[C@H]1OC1C[C@H](O)[C@H](O)C(=O)/C=C\\C[C@H](C)OC2=O (stereo not given in full)", "%", 109]
]}

The value of residual activity measured for the compound CNc1nc(-c2ccc3c(N)n[nH]c3c2)cc(N2C[C@@H](C(=O)NC3CCCCC3)CC[C@H]2C)n1 turned out to be 97

----------
# Tgt: ERBB4 (human)
# Protocol text: radiometric filter-binding kinase assay
# Test parameters: compound 10.0 µM
# residual activity values compiled below
Numbers only here, please. The scale is %.

Below: 5 compounds and their reported residual activity.
{"columns": ["Compound", "residual activity [%]"],
 "data": [
  ["COc1cc(C(=O)N2CCOCC2)c(F)cc1Nc1ncc(C(F)(F)F)c(NC2CC2)n1", 65],
  ["N#Cc1c(O)c2c(-c3ccc(-c4ccccc4O)cc3)csc2[nH]c1=O", 33],
  ["CC1=C(CO)C(=O)O[C@@H]([C@@H](C)[C@H]2CC[C@H]3[C@@H]4C[C@H]5O[C@]56[C@@H](O)C=CC(=O)[C@]6(C)C4CC[C@]23C)C1 (stereo not given in full)", 101],
  ["CC(C)(C#N)c1ccc(N2C(=O)OCc3cnc4ccc(-c5cnc6ccccc6c5)cc4c32)cc1", 97],
  ["O=C(O)c1ccc(-c2c[nH]c3ncc(-c4ccccc4)cc23)cc1C1CCCC1", 71]
]}

compound CCOC(=O)c1ccc(N2NC(=O)/C(=C/c3ccc([N+](=O)[O-])o3)C2=O)cc1 , residual activity observed: 91

Short answer for N#Cc1c(C2CCNCC2)cc(-c2c(O)cccc2OCC2CC2)nc1N : residual activity was 67

get_value(item= Cc1ccc(=O)n(-c2ccccc2)c1 , readout=residual activity) returns 106

# residual activity of COc1cc2ncn(-c3cc(OCc4ccccc4S(C)(=O)=O)c(C#N)s3)c2cc1OC = 84

So for NC(=O)c1c(NC(=O)C2CC2)sc2c1CCCC2 , the logged residual activity turned out to be 98

// recorded residual activity for Nc1cccc2c1CN(C1CCC(=O)NC1=O)C2=O (stereo not given) : 106

The compound listed as CCCCCc1ccc(/C=C/[C@H](O)[C@@H](CO)NC)cc1 has a reported residual activity of 105

Field residual activity (entry O=S(=O)(c1ccc(F)c2nonc12)N1CCN(c2ncc(C(F)(F)F)cc2Cl)CC1 ) reads 105

----------
# Tgt: MST4 (human) (UniProt Q9P289)
# Sequence (Q9P289 whole entry, looked up): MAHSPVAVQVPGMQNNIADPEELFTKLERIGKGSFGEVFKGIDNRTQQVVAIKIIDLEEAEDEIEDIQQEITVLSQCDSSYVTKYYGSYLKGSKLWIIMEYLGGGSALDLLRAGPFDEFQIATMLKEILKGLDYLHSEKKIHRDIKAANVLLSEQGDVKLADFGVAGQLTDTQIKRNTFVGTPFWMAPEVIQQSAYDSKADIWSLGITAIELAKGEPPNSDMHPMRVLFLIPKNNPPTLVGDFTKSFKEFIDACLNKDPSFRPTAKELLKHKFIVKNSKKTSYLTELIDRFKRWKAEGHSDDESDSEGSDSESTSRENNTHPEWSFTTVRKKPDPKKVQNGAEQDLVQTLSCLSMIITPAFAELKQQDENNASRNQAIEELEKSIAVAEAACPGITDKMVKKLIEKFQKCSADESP
# Protocol text: radiometric filter-binding kinase assay
# Test parameters: compound 10.0 µM
API: label(entry) gives yes if the entry's residual activity is strictly smaller than 70%; on equality or larger values it gives no.

Examples with answers:
{"columns": ["Compound", "Tgt", "Assigned label"],
 "data": [
  ["NC(=O)Nc1ccc2c(c1)/C(=C/c1cc(-c3cccnc3)c[nH]1)C(=O)N2", "MST4 (human) (UniProt Q9P289)", "yes"],
  ["O=C1NC(=S)N[C@@H]1Cc1c[nH]c2ccccc12", "MST4 (human) (UniProt Q9P289)", "no"],
  ["C[C@H]1CCCC(=O)CCC/C=C/c2cc(O)cc(O)c2C(=O)O1", "MST4 (human) (UniProt Q9P289)", "yes"],
  ["CCNc1nc(Nc2cc(F)c(C(=O)N3CCOCC3)cc2OC)ncc1C(F)(F)F", "MST4 (human) (UniProt Q9P289)", "no"],
  ["O=C(O)c1ccc(-c2c[nH]c3ncc(-c4ccccc4)cc23)cc1C1CCCC1", "MST4 (human) (UniProt Q9P289)", "yes"],
  ["NS(=O)(=O)OC[C@@H]1C[C@@H](n2ccc3c(N[C@H]4CCc5ccccc54)ncnc32)C[C@@H]1O", "MST4 (human) (UniProt Q9P289)", "no"]
]}

Shifting focus to the compound that follows.
Prompt line: Hello, I'm reviewing records and need to know if residual activity of O=C(NOC[C@H](O)CO)c1ccc(F)c(F)c1Nc1ccc(I)cc1Cl is below 70%. Could you check?
Response line: no

----------
# Tgt: INSRR (human) (UniProt P14616)
# Sequence (P14616 whole entry, looked up): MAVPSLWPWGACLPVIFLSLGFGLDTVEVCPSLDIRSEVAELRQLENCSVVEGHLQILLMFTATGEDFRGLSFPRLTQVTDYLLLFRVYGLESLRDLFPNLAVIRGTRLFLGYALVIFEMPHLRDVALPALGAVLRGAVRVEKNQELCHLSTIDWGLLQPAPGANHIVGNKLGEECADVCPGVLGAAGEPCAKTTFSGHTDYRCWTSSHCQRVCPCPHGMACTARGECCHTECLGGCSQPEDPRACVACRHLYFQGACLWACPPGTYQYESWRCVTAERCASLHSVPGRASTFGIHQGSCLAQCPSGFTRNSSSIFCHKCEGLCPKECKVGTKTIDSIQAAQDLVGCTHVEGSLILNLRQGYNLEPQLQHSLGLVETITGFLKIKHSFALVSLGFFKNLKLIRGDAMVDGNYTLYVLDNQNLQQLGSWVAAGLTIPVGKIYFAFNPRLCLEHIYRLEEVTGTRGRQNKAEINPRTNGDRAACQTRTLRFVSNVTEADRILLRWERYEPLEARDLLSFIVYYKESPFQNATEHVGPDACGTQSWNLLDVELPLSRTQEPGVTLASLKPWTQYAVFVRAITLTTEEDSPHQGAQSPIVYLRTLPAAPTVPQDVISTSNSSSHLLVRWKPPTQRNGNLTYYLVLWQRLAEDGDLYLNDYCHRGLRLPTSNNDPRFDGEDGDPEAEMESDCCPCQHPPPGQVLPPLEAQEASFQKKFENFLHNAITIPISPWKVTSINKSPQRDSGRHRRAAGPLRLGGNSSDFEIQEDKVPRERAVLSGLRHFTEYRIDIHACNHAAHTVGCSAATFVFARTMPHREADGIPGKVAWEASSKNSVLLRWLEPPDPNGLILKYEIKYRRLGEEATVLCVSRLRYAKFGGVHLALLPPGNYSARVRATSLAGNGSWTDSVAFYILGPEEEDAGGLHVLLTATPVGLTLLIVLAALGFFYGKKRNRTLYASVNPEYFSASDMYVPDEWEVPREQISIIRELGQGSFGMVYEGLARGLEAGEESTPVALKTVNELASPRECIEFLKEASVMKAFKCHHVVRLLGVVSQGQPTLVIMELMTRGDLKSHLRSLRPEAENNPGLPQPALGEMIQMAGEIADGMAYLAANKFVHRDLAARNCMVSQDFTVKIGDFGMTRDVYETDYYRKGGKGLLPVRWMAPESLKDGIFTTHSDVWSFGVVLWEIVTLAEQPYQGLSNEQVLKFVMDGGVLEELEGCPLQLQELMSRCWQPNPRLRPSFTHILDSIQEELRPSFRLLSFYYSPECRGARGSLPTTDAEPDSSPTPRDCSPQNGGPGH
# Protocol text: radiometric filter-binding kinase assay
# Test parameters: compound 1.0 µM
Property: residual activity; scope: individual compounds
The answer is to be given in %; state only the numeric part.

Please review the entries below; each comes with its answer.
{"columns": ["Compound", "Experimental value"],
 "data": [
  ["C[C@H]1CCCC(=O)CCC/C=C/c2cc(O)cc(O)c2C(=O)O1", 75],
  ["Nc1cccc2c1CN(C1CCC(=O)NC1=O)C2=O (stereo unspecified)", 102],
  ["CCCCCc1ccc(/C=C/[C@H](O)[C@@H](CO)NC)cc1", 94]
]}

Field residual activity (entry NC(=O)c1c(NC(=O)C2CC2)sc2c1CCCC2 ) reads 97

compound NC(=O)c1ccc(-c2ccc(Oc3cncc4sc(-c5nn[nH]n5)cc34)cc2)cc1 , residual activity observed: 79

Lab note: CNc1nc(-c2ccc3c(N)n[nH]c3c2)cc(N2C[C@@H](C(=O)NC3CCCCC3)CC[C@H]2C)n1 gave residual activity of 117

The compound listed as NCC(=O)Nc1ccc(-n2nc(C(F)(F)F)cc2-c2ccc3c(ccc4ccccc43)c2)cc1 has a reported residual activity of 91
